Consider the following pIC50 values measured on CDK6 (Homo sapiens (Human)).
Remember, pIC50 is on a log scale: it is -log10 of the molar concentration.

Below, each entry is followed by its recorded pIC50 result.
# Compound, pIC50
records = [
    ("CC(C)N1CCOc2c(F)cc(-c3nc(Nc4ccc(CN5CCN(C)CC5)c(F)c4)ncc3F)cc21 [Compound 792]", 8.40),
    ("CC(C)CN1CCOc2c(F)cc(-c3nc(Nc4ccc(N5CCC(O)CC5)cn4)ncc3F)cc21 [Compound 488]", 6.70),
    ("CC(C)N1CCOc2c(F)cc(-c3nc(Nc4ccc(N5CCNCC5)cn4)ncc3F)cc21 [Compound 1]", 9.70),
    ("CC(C)CN1CCOc2c(F)cc(-c3nc(Nc4ccc(N5CCOCC5)cn4)ncc3F)cc21 [Compound 489]", 6.80),
    ("CC(C)N1CCOc2c(F)cc(-c3nc(Nc4ccc(C5CCN(C)CC5)c(F)n4)ncc3F)cc21 [Compound 846]", 8.40),
]

API: value(readout= pIC50, system= CDK6 (Homo sapiens (Human)), query= Fc1cnc(Nc2ccc(N3CCOCC3)cn2)nc1-c1cc(F)c2c(c1)N(C1CCC1)CCO2 [Compound 487] )
6.95

I'm curious: which pIC50 was measured for CC(C)CN1CCOc2c(F)cc(-c3nc(Nc4ccc(C5CCN(C)CC5)c(F)c4)ncc3F)cc21 [Compound 476] tested on CDK6 (Homo sapiens (Human))?
7.60

Enter reported pIC50 observed with CDK6 (Homo sapiens (Human)) for CC(C)N1CCOc2c(F)cc(-c3nc(Nc4ccc(C(N)=O)cn4)ncc3F)cc21 [Compound 521]
7.70

Lab note: need pIC50 for CN1CCC(c2ccc(Nc3ncc(F)c(-c4cc(F)c5c(c4)N(C)CCO5)n3)cc2F)CC1 [Compound 466] on CDK6 (Homo sapiens (Human)), anyone have it?
8.00

What value of pIC50 on CDK6 (Homo sapiens (Human)) does CN1CCOc2c(F)cc(-c3nc(Nc4ccc(N5CCNCC5)c(F)c4)ncc3F)cc21 [Compound 34] have?
8.22

* * *

The following compounds have recorded pIC50 on UniProt:P07333.
Units for pIC50: none; it is -log10 of a concentration expressed in mol/L.

Example entries begin here.
# Smiles str, pIC50
measured = [
    ("CC(C)N1CCOc2c(F)cc(-c3nc(Nc4ccc(N5CCC(CCO)CC5)cn4)ncc3F)cc21", 5.34),
    ("CC(C)CN1CCOc2c(F)cc(-c3nc(Nc4ccc(N5CCC(N(C)C)CC5)c(F)c4)ncc3F)cc21", 7.09),
]

Attention now shifts to the item below.
Form: Entry = CC(C)N1CCOc2c(F)cc(-c3nc(Nc4ccc(N5CCC(N(C)C)CC5)c(F)c4)ncc3F)cc21 | System = UniProt:P07333 | pIC50 = ____
8.30

* * *

- Target desc: FMS kinase (Homo sapiens (Human))
- Sequence (P07333 20-972): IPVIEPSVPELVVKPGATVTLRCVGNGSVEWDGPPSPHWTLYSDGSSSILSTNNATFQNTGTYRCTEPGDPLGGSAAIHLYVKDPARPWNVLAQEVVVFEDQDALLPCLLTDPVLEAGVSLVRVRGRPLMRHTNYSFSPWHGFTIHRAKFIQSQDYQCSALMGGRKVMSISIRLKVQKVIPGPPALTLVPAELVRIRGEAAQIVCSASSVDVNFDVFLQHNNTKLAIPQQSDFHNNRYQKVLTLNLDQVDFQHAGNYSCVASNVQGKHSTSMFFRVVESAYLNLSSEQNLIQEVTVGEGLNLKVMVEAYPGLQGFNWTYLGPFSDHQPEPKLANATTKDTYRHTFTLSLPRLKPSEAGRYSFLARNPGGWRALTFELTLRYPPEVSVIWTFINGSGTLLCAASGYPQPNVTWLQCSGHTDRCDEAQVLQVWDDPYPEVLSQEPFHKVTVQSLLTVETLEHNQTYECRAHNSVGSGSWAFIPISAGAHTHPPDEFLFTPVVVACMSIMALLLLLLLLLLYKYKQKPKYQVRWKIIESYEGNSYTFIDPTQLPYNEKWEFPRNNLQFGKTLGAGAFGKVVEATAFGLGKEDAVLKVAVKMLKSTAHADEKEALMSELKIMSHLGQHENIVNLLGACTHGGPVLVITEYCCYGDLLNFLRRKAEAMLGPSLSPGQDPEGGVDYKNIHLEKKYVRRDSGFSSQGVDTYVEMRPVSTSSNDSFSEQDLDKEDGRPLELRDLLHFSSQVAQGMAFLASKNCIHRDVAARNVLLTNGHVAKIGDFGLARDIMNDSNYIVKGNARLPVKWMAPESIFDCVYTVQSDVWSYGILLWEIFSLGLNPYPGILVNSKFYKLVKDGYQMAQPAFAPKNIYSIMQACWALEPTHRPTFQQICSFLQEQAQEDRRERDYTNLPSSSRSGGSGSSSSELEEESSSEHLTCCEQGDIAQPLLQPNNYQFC
Counter-ions that a name gives are not always drawn.
Readout kind: pIC50
// pIC50: -log10(molar conc.)

Recorded pIC50, per entry:
# Molecule, Target desc, pIC50
rows = [
    ("CC(C)N1CCOc2c(F)cc(-c3nc(Nc4ccc(N5CCC(O)CC5)c(F)c4)ncc3F)cc21", "FMS kinase (Homo sapiens (Human))", 7.16),
    ("CCCN1CCOc2c(F)cc(-c3nc(Nc4ccc(N5CCNCC5)c(F)c4)ncc3F)cc21", "FMS kinase (Homo sapiens (Human))", 6.99),
    ("CC(C)N1CCOc2c(F)cc(-c3nc(Nc4ccc(N5CCNCC5)c(F)c4F)ncc3F)cc21", "FMS kinase (Homo sapiens (Human))", 6.91),
    ("CN1CCC(c2ccc(Nc3ncc(F)c(-c4cc(F)c5c(c4)N(C)CCO5)n3)cc2F)CC1", "FMS kinase (Homo sapiens (Human))", 7.46),
    ("CC(C)N1CCOc2c(F)cc(-c3nc(Nc4ccc(C5CCN(C)CC5)nc4)ncc3F)cc21", "FMS kinase (Homo sapiens (Human))", 7.32),
]

Let's switch to this molecule now.
Report pIC50 for CC(C)N1CCOc2c(F)cc(-c3nc(Nc4ccc(N5CCNCC5)c(F)c4)ncc3F)cc21 [Compound 12, hydrochloride] tested on FMS kinase (Homo sapiens (Human)).
7.54
